- Tested on: Escherichia coli
- protocol: Inhibition of LspA in Escherichia coli CFT073imp4213 harboring outer membrane-permeable mutant assessed as inhibition of bacterial growth
Starred links: 1 amine or outer side, 2 acyl side, 3 side chain; linkers in the order of their positions; H or OH if unused. Non-standard residues stand in square brackets, D forms with d. Residues, ends and D or L forms follow the SMILES beside them. *: point of attachment. X1 = CCCCCC[C@@H](OC[C@@H](C)N[*:1])[C@@H](C)C(=O)[*:2]; Gly(cHept) = N[C@H](C(=O)O)C1CCCCCC1; NMeNva = CCC[C@H](NC)C(=O)O; Dap = NC[C@H](N)C(=O)O; X11 = NCCCC*
measured.parameter: MIC (µM)
Output spec: scalar in µM, unitless text.

Here are 4 molecules together with their reported answers.
molecule	MIC, µM
CCCCCC[C@H]1OC(=O)CNC(=O)[C@H]([C@H](C)O)NC(=O)[C@H](CN)NC(=O)[C@H](C2CCCCC2)NC(=O)[C@H](CCC)N(C)C(=O)[C@@H]1C	0.049
CCCCCC[C@H]1OC[C@@H](C)NC(=O)[C@H](COCCCCN)NC(=O)[C@H](CN)NC(=O)[C@H](C2CCCCCC2)NC(=O)[C@H](CCC)N(C)C(=O)[C@@H]1C (cyclo([Dap]S(X11)[X1][NMeNva][Gly(cHept)]))	0.14
CCCCCCCCCC[C@H]1OC(=O)CNC(=O)[C@H]([C@H](C)O)NC(=O)[C@H](CCN)NC(=O)[C@H]([C@@H](C)CC)NC(=O)[C@H](CC(C)C)N(C)C(=O)[C@@H]1C	0.39
CCCCCC[C@H]1OC(=O)CNC(=O)[C@H]([C@H](C)O)NC(=O)[C@H](CN)NC(=O)[C@H]([C@@H](C)O)NC(=O)[C@H](CC(C)C)N(C)C(=O)[C@@H]1C	50

Please look at the following molecule next.
Can you look up MIC on Escherichia coli for CCCCCC[C@H]1OC[C@@H](C)NC(=O)[C@H](COc2ccc(CN)cc2)NC(=O)[C@H](CN)NC(=O)[C@H](C2CCCCC2)NC(=O)[C@H](CCC)N(C)C(=O)[C@@H]1C ?
0.39

----------
- System: Escherichia coli
- protocol: Inhibition of LspA in Escherichia coli CFT073imp4213 harboring outer membrane-permeable mutant assessed as inhibition of bacterial growth
Starred links: 1 amine or outer side, 2 acyl side, 3 side chain; linkers in the order of their positions; H or OH if unused. Non-standard residues stand in square brackets, D forms with d. Residues, ends and D or L forms follow the SMILES beside them. *: point of attachment. X1 = CCCCCC[C@@H](OC[C@@H](C)N[*:1])[C@@H](C)C(=O)[*:2]; X16 = CCCC[C@@H](C(=O)[*:2])N(CCCC)CCN[*:1]; Gly(cHept) = N[C@H](C(=O)O)C1CCCCCC1; aThr = C[C@H](O)[C@H](N)C(=O)O; NMeL = CN[C@@H](CC(C)C)C(=O)O; Chg = N[C@H](C(=O)O)C1CCCCC1; NMeNva = CCC[C@H](NC)C(=O)O; X2 = NC[C@H]1C[C@H](*)C1; Dap = NC[C@H](N)C(=O)O
Catalogue of compounds with associated MIC
Output spec: scalar in µM, unitless text.

Here are 2 compounds together with their reported answers.
compound	MIC (µM)
CCCC[C@H]1C(=O)N(C)[C@@H](CC(C)C)C(=O)N[C@@H](C2CCCCC2)C(=O)N[C@@H](CN)C(=O)N[C@@H]([C@H](C)O)C(=O)NCCN1CCCC (cyclo([Chg][Dap][aThr][X16][NMeL]))	0.1
COC(C)(C)CCCCCC[C@H]1OC(=O)CNC(=O)[C@H]([C@H](C)O)NC(=O)[C@H](CN)NC(=O)[C@H](C2CCCCC2)NC(=O)[C@H](CC(C)C)N(C)C(=O)[C@@H]1C	0.048

Can you look up MIC on Escherichia coli for CCCCCC[C@H]1OC[C@@H](C)NC(=O)[C@H](CO[C@H]2C[C@H](CN)C2)NC(=O)[C@H](CN)NC(=O)[C@H](C2CCCCCC2)NC(=O)[C@H](CCC)N(C)C(=O)[C@@H]1C (cyclo([Dap]S(X2)[X1][NMeNva][Gly(cHept)])) ?
0.048

Can you look up MIC on Escherichia coli for CCCCCCCCCC[C@H]1OC(=O)CNC(=O)[C@H]([C@H](C)O)NC(=O)[C@H](CN)NC(=O)[C@H]([C@@H](C)CC)NC(=O)[C@H](CC(C)C)N(C)C(=O)[C@@H]1C ?
0.03

----------
- protocol: Growth inhibition of Staphylococcus aureus USA300
Starred links: 1 amine or outer side, 2 acyl side, 3 side chain; linkers in the order of their positions; H or OH if unused. Non-standard residues stand in square brackets, D forms with d. Residues, ends and D or L forms follow the SMILES beside them. X10 = CCCCCC[C@@H](OC[C@@H](CC)N[*:1])[C@@H](C)C(=O)[*:2]; aThr = C[C@H](O)[C@H](N)C(=O)O; NMeL = CN[C@@H](CC(C)C)C(=O)O; Chg = N[C@H](C(=O)O)C1CCCCC1; Dap = NC[C@H](N)C(=O)O
Catalogue of molecules with associated MIC
Output spec: scalar in µM, unitless text.

molecule	value.observed
CCCCCCCCCC[C@H]1OC(=O)CNC(=O)[C@H]([C@H](C)O)NC(=O)[C@H](C)NC(=O)[C@H]([C@@H](C)CC)NC(=O)[C@H](CC(C)C)N(C)C(=O)[C@@H]1C	25

Give its MIC value. Item: CCCCCCCCCC[C@H]1OC(=O)CNC(=O)[C@H]([C@H](C)O)NC(=O)[C@H](CN)NC(=O)[C@H]([C@H](C)CC)NC(=O)[C@H](CC(C)C)N(C)C(=O)[C@@H]1C
15

Give its MIC value. Item: CCCCCC[C@H]1OC[C@H](C)NC(=O)[C@H]([C@H](C)O)NC(=O)[C@H](CN)NC(=O)[C@H](C2CCCCC2)NC(=O)[C@H](CC(C)C)N(C)C(=O)[C@@H]1C
71

Give its MIC value. Item: CCCCCC[C@H]1OC(=O)CNC(=O)[C@H]([C@H](C)O)NC(=O)[C@H](CN)NC(=O)[C@H](C2CCCCCC2)NC(=O)[C@H](CC(C)C)N(C)C(=O)[C@@H]1C
50

Give its MIC value. Item: CCCCCC[C@H]1OC[C@@H](CC)NC(=O)[C@H]([C@H](C)O)NC(=O)[C@H](CN)NC(=O)[C@H](C2CCCCC2)NC(=O)[C@H](CC(C)C)N(C)C(=O)[C@@H]1C (cyclo([Chg][Dap][aThr][X10][NMeL]))
50

Give its MIC value. Item: CCCCCCCCCC[C@H]1OC(=O)CNC(=O)[C@H]([C@H](C)O)NC(=O)[C@H](CNC(=N)N)NC(=O)[C@H]([C@@H](C)CC)NC(=O)[C@H](CC(C)C)N(C)C(=O)[C@@H]1C
13

----------
- protocol: Lipophilicity, logD of the compound at pH 7.4
- settings: buffer, pH 7.4, logD
Starred links: 1 amine or outer side, 2 acyl side, 3 side chain; linkers in the order of their positions; H or OH if unused. Non-standard residues stand in square brackets, D forms with d. Residues, ends and D or L forms follow the SMILES beside them. *: point of attachment. X6 = C[C@H](CO[C@H](CC1C[C@H]2CC[C@@H](C1)C2)[C@@H](C)C(=O)[*:2])N[*:1]; dAlaψ(CH2NBu)Nle = CCCC[C@@H](C(=O)[*:2])N(CCCC)C[C@@H](C)N[*:1]; X3 = C[C@H](CO[C@H](CC1CC2(CCC2)C1)[C@@H](C)C(=O)[*:2])N[*:1]; Cyclobutyl(trans-3-NH2) = N[C@H]1C[C@H](*)C1; Gly(cHept) = N[C@H](C(=O)O)C1CCCCCC1; Chg = N[C@H](C(=O)O)C1CCCCC1; NMeNva = CCC[C@H](NC)C(=O)O; Dap = NC[C@H](N)C(=O)O; X5 = NCCCNCCC*
measured.parameter: logD

compound	logD
CCCC[C@H]1C(=O)N(C)[C@@H](CCC)C(=O)N[C@@H](C2CCCCC2)C(=O)N[C@@H](CN)C(=O)N[C@@H](CO[C@H]2C[C@H](N)C2)C(=O)N[C@H](C)CN1CCCC (cyclo([Chg][Dap]S(Cyclobutyl(trans-3-NH2))[dAlaψ(CH2NBu)Nle][NMeNva]))	1.5
CCC[C@H]1C(=O)N[C@@H](C2CCCCCC2)C(=O)N[C@@H](CN)C(=O)N[C@@H](CO[C@H]2C[C@H](N)C2)C(=O)N[C@H](C)CO[C@H](CC2C[C@H]3CC[C@@H](C2)C3)[C@@H](C)C(=O)N1C (stereo partly drawn) (cyclo([Dap]S(Cyclobutyl(trans-3-NH2))[X6][NMeNva][Gly(cHept)]))	1.7
CCCCCCCCCC[C@H]1OC(=O)CNC(=O)[C@H]([C@H](C)O)NC(=O)[C@H](CN)NC(=O)[C@H]([C@H](C)CC)NC(=O)[C@H](CC(C)C)N(C)C(=O)[C@@H]1C	4.6

Give its logD value. Item: CCC[C@H]1C(=O)N[C@@H](C2CCCCCC2)C(=O)N[C@@H](CN)C(=O)N[C@@H](COCCCNCCCN)C(=O)N[C@H](C)CO[C@H](CC2CC3(CCC3)C2)[C@@H](C)C(=O)N1C (cyclo([Dap]S(X5)[X3][NMeNva][Gly(cHept)]))
0.7
